test system: human colon cancer (Caco-2) cell line; assay: cells; type: cell-based; details: IC50 on normal cells (WI-38)/IC50 on Caco-2
Assign labels as follows, please: Met for Therapeutic Index (TI), Colon (Caco-2) below 10; Not met for Therapeutic Index (TI), Colon (Caco-2) equal to or exceeding 10.

compound	class-label
COc1ccc(Nc2n[nH]c(/N=C/c3ccc(N4CCCCC4)cc3)c2C(=O)Nc2ccc(C)cc2)cc1 [5e]	Not met
Cc1c(C=Nc2[nH]nc(Nc3ccccc3)c2C(=O)Nc2ccccc2)c(=O)n(-c2ccccc2)n1C [7a]	Not met
O=C(Nc1ccccc1)c1c(Nc2ccccc2)n[nH]c1N=Cc1ccc(N2CCCCC2)cc1 [5a]	Met
COc1ccc(Nc2n[nH]c(/N=C/c3ccc(N4CCCCC4)cc3)c2C(=O)Nc2ccccc2)cc1 [5d]	Not met
COc1ccc(Nc2n[nH]c(N=Cc3c(C)n(C)n(-c4ccccc4)c3=O)c2C(=O)Nc2ccc(Cl)cc2)cc1 [7f]	Not met
COc1ccc(Nc2n[nH]c(N=Cc3ccc(N4CCCCC4)cc3)c2C(=O)Nc2ccc(Cl)cc2)cc1 [5f]	Met

====

test system: human colon cancer (Caco-2) cell line; assay: cells; assay type: cell-based; conditions: Conc.: 5a 26.91, 5d 25.27, 5e 24.58, 5f 23.63, 7a 25.43, 7f 22.48, DOX 23.00
measured-attribute: Viability %, Caco-2, 2nd concentration (%)

smiles-str	value-observed
COc1ccc(Nc2n[nH]c(/N=C/c3ccc(N4CCCCC4)cc3)c2C(=O)Nc2ccccc2)cc1	51.15
O=C(Nc1ccccc1)c1c(Nc2ccccc2)n[nH]c1N=Cc1ccc(N2CCCCC2)cc1	74.41
COc1ccc(Nc2n[nH]c(N=Cc3c(C)n(C)n(-c4ccccc4)c3=O)c2C(=O)Nc2ccc(Cl)cc2)cc1	73.16
COc1ccc(Nc2n[nH]c(N=Cc3ccc(N4CCCCC4)cc3)c2C(=O)Nc2ccc(Cl)cc2)cc1	80.91
COc1ccc(Nc2n[nH]c(/N=C/c3ccc(N4CCCCC4)cc3)c2C(=O)Nc2ccc(C)cc2)cc1	50.65
Cc1c(C=Nc2[nH]nc(Nc3ccccc3)c2C(=O)Nc2ccccc2)c(=O)n(-c2ccccc2)n1C	50.65

====

The entries below are paired with their reported Inhibition (%) Protein Denaturation.
target: bovine serum albumin (BSA) (Bos taurus, UniProt P02769); settings: equal concentrations (1000 µg/mL); mean ± SE
Sequence (P02769 25-607): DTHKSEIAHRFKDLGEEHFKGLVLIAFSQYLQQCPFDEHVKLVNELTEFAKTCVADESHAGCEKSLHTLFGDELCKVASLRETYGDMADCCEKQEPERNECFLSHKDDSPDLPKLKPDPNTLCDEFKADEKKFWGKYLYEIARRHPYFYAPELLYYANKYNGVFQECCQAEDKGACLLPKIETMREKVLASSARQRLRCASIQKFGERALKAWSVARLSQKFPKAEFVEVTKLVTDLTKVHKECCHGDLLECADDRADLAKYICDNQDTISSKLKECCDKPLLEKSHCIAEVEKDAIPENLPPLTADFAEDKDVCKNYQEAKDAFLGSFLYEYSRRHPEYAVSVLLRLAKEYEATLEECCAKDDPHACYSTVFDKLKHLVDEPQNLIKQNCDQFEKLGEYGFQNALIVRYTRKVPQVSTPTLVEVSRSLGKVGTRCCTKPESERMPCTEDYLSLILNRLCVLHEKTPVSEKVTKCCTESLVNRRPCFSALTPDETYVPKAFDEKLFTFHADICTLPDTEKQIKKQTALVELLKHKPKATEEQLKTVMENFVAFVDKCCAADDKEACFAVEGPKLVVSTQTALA

compound	assay-target	Inhibition (%) Protein Denaturation
COc1ccc(Nc2n[nH]c(N=Cc3ccc(N4CCCCC4)cc3)c2C(=O)Nc2ccc(Cl)cc2)cc1 [5f]	bovine serum albumin (BSA) (Bos taurus, UniProt P02769)	27.28
Cc1ccc(NC(=O)c2c(Nc3ccccc3)n[nH]c2/N=C/c2ccc(N3CCCCC3)cc2)cc1 [5b]	bovine serum albumin (BSA) (Bos taurus, UniProt P02769)	7.83
Cc1c(C=Nc2[nH]nc(Nc3ccccc3)c2C(=O)Nc2ccc(Cl)cc2)c(=O)n(-c2ccccc2)n1C [7c]	bovine serum albumin (BSA) (Bos taurus, UniProt P02769)	15.38
Cc1ccc(NC(=O)c2c(Nc3ccccc3)n[nH]c2N=Cc2c(C)n(C)n(-c3ccccc3)c2=O)cc1 [7b]	bovine serum albumin (BSA) (Bos taurus, UniProt P02769)	15.36
Cc1nn(-c2ccccc2)c(Cl)c1C=Nc1[nH]nc(Nc2ccccc2)c1C(=O)Nc1ccc(Cl)cc1 [6c]	bovine serum albumin (BSA) (Bos taurus, UniProt P02769)	17.97
Cc1c(C=Nc2[nH]nc(Nc3ccccc3)c2C(=O)Nc2ccccc2)c(=O)n(-c2ccccc2)n1C [7a]	bovine serum albumin (BSA) (Bos taurus, UniProt P02769)	26.87
O=C(Nc1ccccc1)c1c(Nc2ccccc2)n[nH]c1N=Cc1ccc(N2CCCCC2)cc1 [5a]	bovine serum albumin (BSA) (Bos taurus, UniProt P02769)	26.83
COc1ccc(Nc2n[nH]c(/N=C/c3ccc(N4CCCCC4)cc3)c2C(=O)Nc2ccccc2)cc1 [5d]	bovine serum albumin (BSA) (Bos taurus, UniProt P02769)	27.79
